Tested on: Candida albicans
Method Description: Antifungal activity against Candida albicans ATCC 200955 after 48 hrs by CLSI method
Type: functional, organism-based
Test Conditions: ATCC 200955, 48 h
Measured Endpoint: MIC (µM)

| Chemical Smiles | Tgt | Measured Endpoint | Experimental Value |
| --- | --- | --- | --- |
| OC(Cn1cncn1)(Cn1cncn1)c1ccc(F)cc1F | Candida albicans | MIC | 1.3 |
| CCCCCCCCCC#CCCCCC(=O)O | Candida albicans | MIC | 198 |
| CN(C/C=C/C#CC(C)(C)C)Cc1cccc2ccccc12 | Candida albicans | MIC | 51.5 |

* * *

System: Trichophyton mentagrophytes
Method Description: Antifungal activity against Trichophyton mentagrophytes ATCC MYA-4439 by CLSI method
Format: functional, organism-based
Mark met only when MIC stays strictly below 3 µM. Values equal to the cut-off are not met.

| Compound | Label |
| --- | --- |
| C=CCCCCCCCCC(=O)O [UNDECYLENIC ACID] | not met |
| CCCCCCCCCC#CCCCCC(=O)O | not met |
| CCCCCCCCCCC#CCCCCC(=O)O | not met |
| CC(=O)N1CCN(c2ccc(OCC3COC(Cn4ccnc4)(c4ccc(Cl)cc4Cl)O3)cc2)CC1 (centres undefined) [KETOCONAZOLE] | met |
| CN(C/C=C/C#CC(C)(C)C)Cc1cccc2ccccc12 [TERBINAFINE] | met |
| CCCCCCCCCCCCC#CCCCCC(=O)O [6-NONADECYNOIC ACID] | met |
| C[C@@H]1[C@H](O)[C@@H](C)/C=C/C=C/C=C/C=C/C=C/C=C/C=C/[C@H](O[C@@H]2O[C@H](C)[C@@H](O)[C@H](N)[C@@H]2O)C[C@@H]2O[C@](O)(C[C@@H](O)C[C@@H](O)[C@H](O)CC[C@@H](O)C[C@@H](O)CC(=O)O[C@H]1C)C[C@H](O)[C@H]2C(=O)O [AMPHOTERICIN B] | met |
| CCCCCCCCCCCC#CCCCCC(=O)O [6-OCTADECYNOIC ACID] | met |
| CCCCCC#CCC#CCC#CCC#CCCCC(=O)O | not met |
